- Tested on: mice
- protocolNotes: Analgesic effect of intragastric administration on mice measured with hot-plate test
- Format: in vivo, ICR mice
- experimentalContext: Table 3 screening; 0.6 mg/kg intragastric; 1 hour; x ± s, n = 10
compounds and their reported pain threshold after administration
Report the figure in s without appending any unit label.

Please review the entries below; each comes with its answer.
Entry C/C=C1\[C@H]2C=C(C)C[C@]1(N=CC=Cc1ccncc1)c1ccc(=O)[nH]c1C2 [Example 20] : pain threshold after administration on mice = 25.0

Entry C/C=C1\[C@H]2C=C(C)C[C@]1(/N=C/C=C/C=C/c1ccccc1)c1ccc(=O)[nH]c1C2 [Example 8] : pain threshold after administration on mice = 23.0

Entry C/C=C1\[C@H]2C=C(C)C[C@]1(/N=C/C=C/c1ccccc1Cl)c1ccc(=O)[nH]c1C2 [Example 16] : pain threshold after administration on mice = 27.4

Entry C/C=C1\C2C=C(C)CC1(/N=C/C=C/c1ccc3ccccc3c1)c1ccc(=O)[nH]c1C2 (stereo not shown) [Example 22] : pain threshold after administration on mice = 23.6

Entry C/C=C1\[C@H]2C=C(C)C[C@]1(/N=C/C=C/c1ccc(Br)cc1)c1ccc(=O)[nH]c1C2 [Example 13] : pain threshold after administration on mice = 22.0

---
Entry C/C=C1\C2C=C(C)CC1(/N=C\c1ccc(/C=C/C=N/C34CC(C)=CC(Cc5[nH]c(=O)ccc53)/C4=C\C)cc1)c1ccc(=O)[nH]c1C2 (stereo not shown) [Example 27] : pain threshold after administration on mice = 21.2

Entry C/C=C1\[C@H]2C=C(C)C[C@]1(N=CC(Br)=Cc1ccccc1)c1ccc(=O)[nH]c1C2 [Example 10] : pain threshold after administration on mice = 21.0
